tested on: NCI-H322M; experiment: relative viability (nuclei count vs DMSO), 5 days (fraction); higher = more cells survive; settings: first compound 0.006325 µM
Each record here notes measured relative viability.
Just the number, please, no unit after it.

Field: example entries. Status: answers known.
compound	meas_value
CC(=O)O[C@@]12CO[C@@H]1C[C@H](O)[C@@]1(C)C(=O)[C@H](O)C3=C(C)[C@@H](OC(=O)[C@H](O)[C@@H](NC(=O)OC(C)(C)C)c4ccccc4)C[C@@](O)([C@@H](OC(=O)c4ccccc4)[C@H]21)C3(C)C [Docetaxel] + COc1cc2c(Oc3ccc(NC(=O)C4(C(=O)Nc5ccc(F)cc5)CC4)cc3F)ccnc2cc1OCCCN1CCOCC1 [Foretinib] (partner 0.25 µM)	0.702
CC(=O)O[C@@]12CO[C@@H]1C[C@H](O)[C@@]1(C)C(=O)[C@H](O)C3=C(C)[C@@H](OC(=O)[C@H](O)[C@@H](NC(=O)OC(C)(C)C)c4ccccc4)C[C@@](O)([C@@H](OC(=O)c4ccccc4)[C@H]21)C3(C)C [Docetaxel] + CS(=O)(=O)CCNCc1ccc(-c2ccc3ncnc(Nc4ccc(OCc5cccc(F)c5)c(Cl)c4)c3c2)o1 [Lapatinib] (partner 2 µM)	0.46
CC(=O)O[C@@]12CO[C@@H]1C[C@H](O)[C@@]1(C)C(=O)[C@H](O)C3=C(C)[C@@H](OC(=O)[C@H](O)[C@@H](NC(=O)OC(C)(C)C)c4ccccc4)C[C@@](O)([C@@H](OC(=O)c4ccccc4)[C@H]21)C3(C)C [Docetaxel] + CS(=O)(=O)N1CCN(Cc2cc3nc(-c4cccc5[nH]ncc45)nc(N4CCOCC4)c3s2)CC1 [Pictilisib] (partner 1 µM)	0.381
CC(=O)O[C@@]12CO[C@@H]1C[C@H](O)[C@@]1(C)C(=O)[C@H](O)C3=C(C)[C@@H](OC(=O)[C@H](O)[C@@H](NC(=O)OC(C)(C)C)c4ccccc4)C[C@@](O)([C@@H](OC(=O)c4ccccc4)[C@H]21)C3(C)C [Docetaxel] + CC1(C)CCC(c2ccc(Cl)cc2)=C(CN2CCN(c3ccc(C(=O)NS(=O)(=O)c4ccc(N[C@H](CCN5CCOCC5)CSc5ccccc5)c(S(=O)(=O)C(F)(F)F)c4)cc3)CC2)C1 [Navitoclax] (partner 0.5 µM)	0.511

Turning to the following compound.
Need relative viability of CC(=O)O[C@@]12CO[C@@H]1C[C@H](O)[C@@]1(C)C(=O)[C@H](O)C3=C(C)[C@@H](OC(=O)[C@H](O)[C@@H](NC(=O)OC(C)(C)C)c4ccccc4)C[C@@](O)([C@@H](OC(=O)c4ccccc4)[C@H]21)C3(C)C [Docetaxel] + CC(=O)c1c(C)c2cnc(Nc3ccc(N4CCNCC4)cn3)nc2n(C2CCCC2)c1=O [Palbociclib] (partner 0.5 µM) , thanks.
0.468

====

tested on: NCI-H1355; assay: relative viability (nuclei count vs DMSO), 5 days (fraction); higher = more cells survive; settings: first compound 5 µM
reported_endpoint: relative viability
Just the number, please, no unit after it.

Field: example entries. Status: answers known.
compound	relative viability
O=C(O)CCCCC(CCSCc1ccccc1)SCc1ccccc1 (stereo not drawn) [CPI-613] + C[C@@H](Oc1cc(-c2cnn(C3CCNCC3)c2)cnc1N)c1c(Cl)ccc(F)c1Cl [Crizotinib] (partner 1 µM)	1.09
O=C(O)CCCCC(CCSCc1ccccc1)SCc1ccccc1 (stereo not drawn) [CPI-613] + Cc1nc(Nc2ncc(C(=O)Nc3c(C)cccc3Cl)s2)cc(N2CCN(CCO)CC2)n1 [Dasatinib] (partner 0.075 µM)	0.682

Turning to the following compound.
Need relative viability of O=C(O)CCCCC(CCSCc1ccccc1)SCc1ccccc1 (stereo not drawn) [CPI-613] + C[C@]1(O)C[C@@H](c2nc(-c3ccc4ccc(-c5ccccc5)nc4c3)c3c(N)nccn32)C1 [Linsitinib] (partner 1 µM) , thanks.
0.78
